Target: farnesyl-protein transferase (Bos taurus, UniProt P29702+P49355)
Construct: partially pure bovine brain farnesyl-protein transferase
Assay: Inhibition of Ras farnesylation in vitro
Conditions: Ras-CVLS at 3.5 µM, 0.25 µM [³H]FPP, partially purified enzyme; average of 2-5 determinations; read-out: IC₅₀
Where a SMILES comes first, the peptide text is derived from it.
I'd be grateful if you could share measured IC50 for these entries.
Answer with a number only, understood to be in µM.

## Task Requested field: IC50. Item: CSCC[C@H](NC(=O)[C@H](Cc1ccccc1)NC(=O)[C@@H](NC(=O)[C@@H](N)CS)C(C)C)C(N)=O [CVFM-NH₂, Cys-Val-Phe-Met-NH₂] (H-CVFM-NH2)
## Result 2.3

## Task Requested field: IC50. Item: CC(C)C[C@H](NC(=O)[C@@H](NC(=O)[C@@H](N)CS)C(C)C)C(=O)N[C@@H](CO)C(N)=O [CVLS-NH₂, Cys-Val-Leu-Ser-NH₂] (H-CVLS-NH2)
## Result 16

These data points were gathered from patent EP0528486A2.
